Below: a set of entries, each annotated with reported pIC50.
Target entity: dipeptidyl peptidase IV (Homo sapiens, UniProt P27487)
Sequence (P27487 whole entry, species assumed): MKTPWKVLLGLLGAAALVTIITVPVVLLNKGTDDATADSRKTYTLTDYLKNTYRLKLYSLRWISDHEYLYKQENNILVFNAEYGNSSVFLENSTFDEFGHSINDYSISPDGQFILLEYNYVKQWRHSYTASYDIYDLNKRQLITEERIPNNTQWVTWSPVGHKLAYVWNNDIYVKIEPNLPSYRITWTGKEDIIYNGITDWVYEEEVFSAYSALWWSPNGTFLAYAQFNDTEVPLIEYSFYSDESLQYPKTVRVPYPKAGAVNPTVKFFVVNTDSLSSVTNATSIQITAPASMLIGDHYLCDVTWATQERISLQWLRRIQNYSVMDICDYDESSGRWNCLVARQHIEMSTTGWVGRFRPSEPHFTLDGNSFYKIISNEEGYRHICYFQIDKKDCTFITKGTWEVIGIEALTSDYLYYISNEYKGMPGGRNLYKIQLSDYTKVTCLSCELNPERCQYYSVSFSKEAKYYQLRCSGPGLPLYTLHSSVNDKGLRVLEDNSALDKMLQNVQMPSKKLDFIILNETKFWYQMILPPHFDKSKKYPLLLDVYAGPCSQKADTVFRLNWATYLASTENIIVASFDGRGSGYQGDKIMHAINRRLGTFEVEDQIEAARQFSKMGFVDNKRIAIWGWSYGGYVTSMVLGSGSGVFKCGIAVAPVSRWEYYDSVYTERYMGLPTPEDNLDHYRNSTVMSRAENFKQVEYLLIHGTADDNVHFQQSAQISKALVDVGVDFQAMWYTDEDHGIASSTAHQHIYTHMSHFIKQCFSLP
Protocol notes: biochemical
Measurement context: values without "*" = IC-50; read-out: IC50DPIV
Note on pIC50: it is the negative log10 of concentration, concentration in mol/L.

[
  {
    "Molecule": "COc1ccc(C(=O)N/N=C/c2ccc(Cl)cc2Cl)cc1",
    "pIC50": 4.39
  },
  {
    "Molecule": "CCOC(=O)c1ccc(N2C(=O)CSCC2=O)cc1",
    "pIC50": 4.91
  },
  {
    "Molecule": "CCc1c(C)[nH]c2c1/C(=N\\OC(=O)C(C)C)CCC2",
    "pIC50": 4.36
  },
  {
    "Molecule": "O=C(NCc1ccco1)C(=O)Nc1ccc(Br)cc1",
    "pIC50": 4.79
  }
]

Attention now turns to another entry.
Find the recorded pIC50 belonging to Cn1c(=O)n(Cc2ccccc2)c(=O)c2c1nc(N1CCNCC1)n2Cc1ccccc1 [D5.034] and report it.
4.32

###

Target entity: dipeptidyl peptidase IV (Homo sapiens)
Protocol notes: biochemical
Measurement context: values without "*" = IC-50; read-out: IC50DPIV
We label by threshold. Values of IC50 strictly beneath 20 µM are y. Values of 20 µM and up are n.

Check out these entries, answers already filled in.
[
  {
    "Compound": "CCOC(=O)CC(N)c1cccs1 (stereo not shown)",
    "Assigned class": "y"
  },
  {
    "Compound": "O=C1c2ccccc2-c2c1[n+]([O-])c1c([n+]2[O-])CCCC1",
    "Assigned class": "y"
  },
  {
    "Compound": "CC(C)C1=CC23CCC4C(C)(C(=O)O)CCCC4(C)C2CC1C1C(=O)N(c2cccc(O)c2)C(=O)C13 (stereo not shown)",
    "Assigned class": "n"
  },
  {
    "Compound": "CCOc1cccc(/C=N/NC(=O)c2cc(-c3ccc(F)cc3)n[nH]2)c1O",
    "Assigned class": "n"
  },
  {
    "Compound": "CCCOC(=O)c1cc(-c2ccc(/C=C3/C(=O)N(CC(C)O)C(=O)C(C#N)=C3C)o2)ccc1Cl (stereo not shown) [D6.095]",
    "Assigned class": "n"
  },
  {
    "Compound": "CCCCOC(=O)c1cc(-c2ccc(/C=C3/C(=O)N(CC(C)O)C(=O)C(C#N)=C3C)o2)ccc1Cl (stereo not shown) [D4.059]",
    "Assigned class": "n"
  },
  {
    "Compound": "O=C(N/N=C/c1cc(Br)c(O)c(Br)c1O)/C(=C\\c1ccc2c(c1)OCO2)NC(=O)c1ccccc1 [D10.089]",
    "Assigned class": "n"
  },
  {
    "Compound": "O=C(Nc1ccc(O)c(-c2nc3ccccc3s2)c1)c1ccc([N+](=O)[O-])o1",
    "Assigned class": "y"
  }
]

Please let me know if CC1CCc2c(sc(NC(=O)C(C(F)(F)F)C(F)(F)F)c2C#N)C1 (stereo not shown) [D6.083] shows IC50 below 20 µM.
n

Please state whether IC50 is below 20 µM for COc1cc2c(cc1OC)C13CCN4CC5=C(C6=C7CN8CCC9%10c%11cc(OC)c(OC)cc%11N%11C(=O)CC(O6)C(C7CC89)C%11%10)OC6CC(=O)N2C1C6C5CC43 (stereo not shown)
n

Does the reported IC50 of O=C(N/N=C/c1cc([N+](=O)[O-])cc([N+](=O)[O-])c1O)/C(=C/c1ccc([N+](=O)[O-])cc1)NC(=O)c1ccccc1 stay below 20 µM?
n

Lab log: compare recorded IC50 with 20 µM; is it strictly lower for O=C(N/N=C/c1c(O)ccc2ccccc12)c1cc(-c2ccc(-c3ccccc3)cc2)n[nH]1 ?
n

Record CCOC(=O)C(NC(=O)c1ccc(OC)cc1)(N1CCOCC1)C(F)(F)F (stereo not shown) : is its IC50 strictly below 20 µM?
n

Identify whether the compound COc1ccc(/C=N/n2c(N(C(C)=O)C(C)=O)nc(-c3ccccc3)c2-c2ccccc2)cc1 records IC50 below 20 µM.
n

Quick check: does CNc1nc2c(c(=O)[nH]c(=O)n2C)n1Cc1ccccc1Cl [D3.091] have IC50 under 20 µM?
n

I'd appreciate it if you could check whether COC(=O)C1=C2SCC(=O)N2C(N)=C(C#N)C1 has IC50 smaller than 20 µM.
n

Just wondering, is IC50 of Cc1ccc(C(=O)N/C(=C/c2ccco2)C(=O)N(C)C)cc1 [D12.038] below 20 µM?
n

Is IC50 strictly under 20 µM for the entry CCOC(=O)n1ccc(C(=O)Nc2ccccc2F)n1 ?
y

Say whether its IC50 is strictly beneath 20 µM. Entry: COc1ccc(N2CCN(c3nc4c(c(=O)[nH]c(=O)n4C)n3Cc3ccccc3)CC2)cc1 [D4.024]
y

Regarding CSc1nc2sc3c(c2c(=O)n1-c1cccc(C)c1)CC(C)(C)OC3 , kindly confirm whether its IC50 is beneath 20 µM.
n

###

Target entity: UniProt:P27487
Protocol notes: biochemical
Measurement context: values marked with "*" are ID50 values; read-out: IC50DPIV, values marked with "*" = ID50
Documented pIC50 across a set of compounds
Please treat pIC50 as minus the base-10 logarithm of the molar concentration.

These recorded examples may help you get a feel for the data.
[
  {
    "Smiles representation": "CCOC(=O)c1c(NC(=O)c2cccc([N+](=O)[O-])c2)sc(C(C)=O)c1C",
    "Target entity": "UniProt:P27487",
    "pIC50": 3.67
  },
  {
    "Smiles representation": "Cc1cc(C(=O)N/N=C\\c2c[nH]c3ccccc23)c(C)o1",
    "Target entity": "UniProt:P27487",
    "pIC50": 3.47
  },
  {
    "Smiles representation": "CCC(O)(CC)C(=O)NN(C(=O)CNS(=O)(=O)c1ccc(C)cc1)c1ccccc1",
    "Target entity": "UniProt:P27487",
    "pIC50": 3.34
  },
  {
    "Smiles representation": "CCOc1cc(/C=N/NC(=O)c2nnn(-c3nonc3N)c2-c2ccccc2)ccc1OC",
    "Target entity": "UniProt:P27487",
    "pIC50": 3.57
  }
]

Need pIC50 of N/C(=N/[N+](=O)[O-])N/N=C/c1ccc(-c2cccc(Cl)c2Cl)o1 , thanks.
3.22

###

Target entity: dipeptidyl peptidase IV (Homo sapiens, UniProt P27487)
Protocol notes: biochemical
Measurement context: values without "*" = IC-50; read-out: IC50DPIV
Endpoint label: log10 of IC50 (log10 of the value in µM)
In plain terms, each number is the log10 of measured IC50 in µM.

[
  {
    "Compound": "Cc1[nH]c2ccccc2c1C(c1cc(Cl)ccc1O)N1CCOCC1 (stereo not drawn) [D5.007]",
    "Endpoint label": "log10 of IC50",
    "Reported": 1.08
  },
  {
    "Compound": "NS(=O)(=O)c1ccc(N2C(=O)CCCC2=O)cc1 [D4.030]",
    "Endpoint label": "log10 of IC50",
    "Reported": 1.32
  },
  {
    "Compound": "CC(C)(C)C1CCc2c(sc(NC(=O)C(C(F)(F)F)C(F)(F)F)c2C#N)C1 (stereo not drawn) [D3.092]",
    "Endpoint label": "log10 of IC50",
    "Reported": 2.00
  }
]

Fill in: log10 of IC50 of COc1cc(/C=N/NC(=O)CNC(=O)c2cccc(F)c2)ccc1OC(=O)c1ccccc1Cl [D10.093] is ___
1.80

Given the compound CC(C)(C)S(=O)(=O)C1=CN2C3=C(CCCC3)NC2C=C1 (stereo not drawn) [D6.020] , what is its reported log10 of IC50?
1.19

Requested field: log10 of IC50. Item: CC1=C(C#N)C(=O)N(CC(C)O)C(=O)/C1=C/c1ccc(-c2ccc(Br)cc2)o1 (stereo not drawn) [D6.089]
1.87

# input compound: O=C1c2ccc(-c3nc4ccccc4c(=O)o3)cc2C(=O)N1c1ccc(Cc2ccc(N3C(=O)c4ccc(-c5nc6ccccc6c(=O)o5)cc4C3=O)cc2)cc1 [D4.037] ; wanted: its log10 of IC50
1.44

Which log10 of IC50 is listed for CCCOC(=O)c1cc(-c2ccc(/C=C3\C(=O)N(CCCO)C(=O)C(C#N)=C3C)o2)ccc1Cl [D4.081] ?
1.88

Form field: reported log10 of IC50 of C/C(=C\c1ccc(C(C)C)cc1)C1NCC(c2ccc([N+](=O)[O-])cc2)O1 (stereo not drawn) [D4.072]
1.81

Bench note: what log10 of IC50 did CCCC(=O)O/N=C1/C(=O)N(c2ccccc2)c2ccccc21 [D11.006] show?
1.18

Which log10 of IC50 value belongs to COc1cc2c(cc1OC)CC1(CCCC1)N=C2 [D3.077] ?
1.77

Entry under review: CCOC(=O)c1ccc(-c2ccc(/C=C3\C(=O)N(CCO)C(=O)C(C#N)=C3C)o2)cc1 [D6.087] . Reported log10 of IC50?
1.82

What measured log10 of IC50 goes with CCC(O)(CC)C(=O)NNc1ccc(C)cc1 [D14.005] ?
1.43

Using the record for Cc1cccc(C)c1OCC(=O)N/N=C/c1cc(Br)cc(Br)c1OC(=O)c1ccccc1I [D10.084] , report its log10 of IC50.
1.76

So what does the record say about log10 of IC50 for CC1C(=O)N(Cc2ccccc2)C(=O)c2c1nc(N1CCNCC1)n2Cc1ccccc1 (stereo not drawn) [D6.069] ?
1.68

What measured log10 of IC50 goes with O=C(COc1cccc(Cl)c1)N/N=C/c1ccc(O)c([N+](=O)[O-])c1 [D10.049] ?
1.50

# lookup: log10 of IC50 of CC(C)(C)C(=O)Nc1ccc(C(=O)Nc2nccs2)cc1 [D6.007]
0.88

Any idea what log10 of IC50 was measured for COc1ccc(Cl)cc1N1C(=O)CSCC1=O [D4.041] ?
1.49
